target: Nav 1.7 (Homo sapiens (Human)); experiment: Nav 1.7 in vitro assay (IonWorks Quattro population patch-clamp); settings: 293 cells stably transfected with Nav 1.7; 26th pulse to -20 mV, 5 Hz
Sequence (Q15858 whole entry): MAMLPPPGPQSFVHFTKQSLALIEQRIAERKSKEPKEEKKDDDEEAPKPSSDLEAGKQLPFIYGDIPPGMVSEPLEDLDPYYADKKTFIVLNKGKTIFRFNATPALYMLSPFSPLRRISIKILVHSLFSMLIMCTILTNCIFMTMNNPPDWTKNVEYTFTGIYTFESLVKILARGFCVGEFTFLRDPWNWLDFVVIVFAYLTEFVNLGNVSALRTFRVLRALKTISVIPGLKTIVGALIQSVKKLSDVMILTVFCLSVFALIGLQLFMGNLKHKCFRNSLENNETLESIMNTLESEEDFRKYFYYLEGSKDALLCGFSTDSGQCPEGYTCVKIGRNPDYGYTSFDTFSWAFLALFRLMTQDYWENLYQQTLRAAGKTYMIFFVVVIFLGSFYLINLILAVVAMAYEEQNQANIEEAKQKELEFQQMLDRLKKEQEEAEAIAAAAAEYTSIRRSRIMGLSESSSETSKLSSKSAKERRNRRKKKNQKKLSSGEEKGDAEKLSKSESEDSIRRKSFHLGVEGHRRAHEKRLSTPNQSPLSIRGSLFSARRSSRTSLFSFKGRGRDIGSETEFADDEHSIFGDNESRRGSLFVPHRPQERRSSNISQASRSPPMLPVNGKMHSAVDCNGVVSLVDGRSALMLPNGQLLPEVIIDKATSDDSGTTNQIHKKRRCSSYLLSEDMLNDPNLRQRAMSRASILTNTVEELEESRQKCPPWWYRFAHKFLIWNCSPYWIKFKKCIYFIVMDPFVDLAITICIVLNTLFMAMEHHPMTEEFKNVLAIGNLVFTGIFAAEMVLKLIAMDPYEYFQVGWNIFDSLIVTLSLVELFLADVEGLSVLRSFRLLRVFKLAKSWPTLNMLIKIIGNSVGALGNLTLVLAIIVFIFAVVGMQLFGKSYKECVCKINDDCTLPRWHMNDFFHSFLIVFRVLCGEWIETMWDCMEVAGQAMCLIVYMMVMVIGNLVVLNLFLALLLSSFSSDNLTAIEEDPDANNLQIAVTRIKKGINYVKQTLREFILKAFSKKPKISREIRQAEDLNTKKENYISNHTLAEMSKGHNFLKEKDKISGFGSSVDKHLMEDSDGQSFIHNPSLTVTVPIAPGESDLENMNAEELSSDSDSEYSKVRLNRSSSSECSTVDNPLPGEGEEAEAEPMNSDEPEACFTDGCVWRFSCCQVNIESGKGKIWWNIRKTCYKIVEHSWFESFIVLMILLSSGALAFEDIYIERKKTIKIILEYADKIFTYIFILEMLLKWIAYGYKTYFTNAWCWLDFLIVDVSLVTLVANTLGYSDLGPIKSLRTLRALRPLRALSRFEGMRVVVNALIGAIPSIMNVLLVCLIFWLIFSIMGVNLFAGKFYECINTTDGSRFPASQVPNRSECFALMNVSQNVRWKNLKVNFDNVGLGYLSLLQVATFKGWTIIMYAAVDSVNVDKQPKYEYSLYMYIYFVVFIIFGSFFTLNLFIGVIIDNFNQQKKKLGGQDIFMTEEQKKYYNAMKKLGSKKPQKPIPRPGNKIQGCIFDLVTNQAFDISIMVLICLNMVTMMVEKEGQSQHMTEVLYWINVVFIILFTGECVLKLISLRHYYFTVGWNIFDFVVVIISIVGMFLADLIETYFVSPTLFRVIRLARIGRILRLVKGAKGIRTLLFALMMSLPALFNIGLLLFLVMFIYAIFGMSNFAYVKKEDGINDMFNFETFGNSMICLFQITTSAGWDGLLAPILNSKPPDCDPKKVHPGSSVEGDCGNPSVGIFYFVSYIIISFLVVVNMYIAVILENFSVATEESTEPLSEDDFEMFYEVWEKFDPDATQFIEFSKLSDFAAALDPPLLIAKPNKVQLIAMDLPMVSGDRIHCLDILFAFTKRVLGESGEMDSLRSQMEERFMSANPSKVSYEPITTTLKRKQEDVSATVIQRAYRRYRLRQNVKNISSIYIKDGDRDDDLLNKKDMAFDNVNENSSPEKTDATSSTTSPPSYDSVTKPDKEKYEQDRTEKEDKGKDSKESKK
Catalogue of pIC50 values
// field semantics: pIC50 = negative decimal log of concentration (mol/L)

>>> print(df.to_string())
                                   compound  attribute_measured  recorded_number
0  CC(=O)n1cc(-c2ccc(C(F)(F)F)cc2-c2ccnn2C)c2ccc(S(=O)(=O)Nc3ncns3)nc21 [Example 27]               pIC50             6.17

(Q) Give reported pIC50 value for Cn1nccc1-c1cc(C(F)(F)F)ccc1-n1cnc2cc(S(=O)(=O)Nc3ncns3)ccc21 [Example 63]
(A) 5.95

(Q) Give reported pIC50 value for Cn1nccc1-c1cc(C(F)(F)F)ccc1-c1cn(C)c2nc(S(=O)(=O)Nc3ncns3)ccc12 [Example 26]
(A) 5.99
